Assay: Contact angles of various liquids on flat solids
Type: physicochemical
Design: unit not given here
Settings: flat solid Epoxy
The label depends only on Measured contact angle θstatic: y if it is at least 30, n if it is smaller.

Compound Structure: CCCCCCCCCC
Class: n

Compound Structure: CCCCCCCCCCCCC
Class: n

Compound Structure: O
Class: y

Compound Structure: CCCCCCCC
Class: n

Attention now turns to another entry.
Qu. Entry FC(F)(F)C(F)(F)C(F)(F)C(F)(F)C(F)(F)N(C(F)(F)C(F)(F)C(F)(F)C(F)(F)C(F)(F)F)C(F)(F)C(F)(F)C(F)(F)C(F)(F)C(F)(F)F : is its Measured contact angle θstatic no less than 30?
Ans. y

----------
compounds and their reported Measured contact angle θstatic
Assay: Contact angles of various liquids on flat solids
Assay type: physicochemical
Parameters: unit not given here
Settings: flat solid Silicon
Method: The behavior of liquids on surfaces is described by an equilibrium contact angle. An equilibrium contact angle, θ, is the angle at which a liquid/vapor interface meets a solid surface, which is determined by the interactions across the three interfaces, e.g., solid/liquid/vapor. […] The upper limit is known as the apparent advancing contact angle (θA), whereas the lower limit is referred as the apparent receding contact angle (θR). […]

For orientation, consider the following solved cases.
Compound: CCCCCCCC [Octane]
Measured contact angle θstatic: <5.0

Compound: O [Water]
Measured contact angle θstatic: 13.1 ± 1.7

Compound: CCCCCCCCCC [Decane]
Measured contact angle θstatic: <5.0

Compound: CCCCCCCCCCCCCCCC [Hexadecane]
Measured contact angle θstatic: 5.6 ± 1.1

Compound: CCCCC [Pentane]
Measured contact angle θstatic: <5.0

Next item in the queue.
Just so you know, measured Measured contact angle θstatic for CCCCCC [Hexane] came out at <5.0

----------
Test: Stable lubricating film for solid-Liquid A-Liquid B combinations, theory versus experiment
Assay type: physicochemical
Design: key: “Y” indicates that Liquid B forms a stable lubricating film, and is not displaced by Object A; “N” indicates that Liquid B is displaced by Object A
Conditions: Solid Silicon, Liquid B H2O, R 1; label = Liquid A
Assay Readout: Stable Film? Theory

For orientation, consider the following solved cases.
Compound Structure: CCCCCCCCCCCCCCCC
Stable Film? Theory: N
--
Compound Structure: CCCCCCCCCC
Stable Film? Theory: N
--
Compound Structure: CCCCCCCC
Stable Film? Theory: N
--
Compound Structure: CCCCCC
Stable Film? Theory: Y/N

Just so you know, measured Stable Film? Theory for CCCCC came out at Y/N

----------
Test: Stable lubricating film for solid-Liquid A-Liquid B combinations, theory versus experiment
Format: physicochemical
Design: key: “Y” indicates that Liquid B forms a stable lubricating film, and is not displaced by Object A; “N” indicates that Liquid B is displaced by Object A
Details: Solid S. Epoxy (silanized epoxy resin), Liquid B FC-70, R 2; label = Liquid A
Assay Readout: Stable Film? Exp.

For orientation, consider the following solved cases.
Compound Structure: CCCCC
Stable Film? Exp.: Y
--
Compound Structure: CCCCCCCC
Stable Film? Exp.: Y
--
Compound Structure: CCCCCCCCCC
Stable Film? Exp.: Y
--
Compound Structure: O
Stable Film? Exp.: Y
--
Compound Structure: CCCCCC
Stable Film? Exp.: Y
--
Compound Structure: CCCCCCCCCCCCC
Stable Film? Exp.: Y

Next item in the queue.
Just so you know, measured Stable Film? Exp. for CCCCCCCCCCCCCCCC came out at Y
